assay: resazurin metabolic signal in A549 cells – cell-based, resazurin fluorescence, 24 h, PK04 Diversity Set, profiling panel (AID 1171); conditions: A549 viability, higher = more signal, called active from +8 up or from −8 down; further: test concentration not given here
For each of the molecules below, state its z-score.
# respond with the number and nothing more

Enquiry: Using known records, supply z-score for COc1ccc([Si](C)(C)[C@H]2[C@H](CCO)O[C@@]3(C(=O)N(Cc4ccc(NC(=O)[C@H](C)O)cc4)c4ccccc43)[C@@H]2C)cc1
Return: -5.03

Enquiry: Return the recorded z-score value; entry: COc1ccccc1CN1C(=O)c2ccccc2[C@](Cc2ccccc2I)(C(=O)NCC(C)C)[C@@H]1c1ccc(CO)cc1
Return: 0.41

Enquiry: Write down z-score measured for item COC(=O)[C@H](Cc1ccccc1)N1CC2=CCCC=C[C@@H]2[C@H]1[C@H](O)Cc1ccccc1
Return: 0.705

Enquiry: Using known records, supply z-score for O=C(NC1CC1)[C@@H]1c2ccccc2C(=O)N(CC23CC4CC(CC(C4)C2)C3)[C@H]1c1ccc(CO)cc1
Return: 1.5
